From: patent US11655216B2

Molecular target: glutathione-S-transferase (GST) tagged LXRbeta LBD (ligand binding domain) (Homo sapiens)
Construct: purchased Invitrogen pv4658
Sequence (P55055 222-460 limits assumed): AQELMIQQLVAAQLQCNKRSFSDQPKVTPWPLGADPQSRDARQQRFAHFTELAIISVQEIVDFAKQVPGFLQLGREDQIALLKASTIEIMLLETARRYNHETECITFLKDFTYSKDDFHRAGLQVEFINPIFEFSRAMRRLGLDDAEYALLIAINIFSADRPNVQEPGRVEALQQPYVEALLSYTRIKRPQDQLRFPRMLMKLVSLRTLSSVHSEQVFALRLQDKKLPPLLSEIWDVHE
Assay: LanthaScreen TR-FRET Liver X Receptor Coactivator Assay, LXR beta
Format: biochemical
Conditions: read-out: LXR beta actiivty at max dose, efficacy (% Emax) in relation to reference dual agonist T0901317

molecule: CN(C)C(=O)c1ccc(OCCC[C@H]2CC23CCN(C(=O)[C@](O)(c2ccccc2)C(F)(F)F)CC3)nc1Cl (single isomer, unassigned) [Example 15-1]
readout-units: %
Emax: 88
--
molecule: CN(C(=O)c1ccc(OCCCCC2CCN(C(=O)[C@](O)(c3ccccc3)C(F)(F)F)CC2)cc1Cl)C1COC1 (single isomer, unassigned) [Example 8-13]
readout-units: %
Emax: 73
--
molecule: CN(C)C(=O)c1ccc(OCCCCC2CCN(C(=O)C(O)(c3cccc(OC(F)(F)F)c3)C(F)(F)F)CC2)cc1Cl (single isomer, unassigned) [Example 3-9]
readout-units: %
Emax: 64
--
molecule: CN(C)C(=O)c1ccc(OCCC2CC3(CCN(C(=O)C(O)(c4ccccc4)C(F)(F)F)CC3)C2)cc1Cl (single isomer, unassigned) [Example 34-1]
readout-units: %
Emax: 113
--
molecule: COc1cccc([C@](O)(C(=O)N2CCC3(CC2)C[C@@H]3CCCOc2ccc(C(=O)N(C)C)c(Cl)c2)C(F)(F)F)c1 (single isomer, unassigned) [Example 14-7]
readout-units: %
Emax: 100
--
molecule: CN(C)C(=O)c1ccc(OCCC[C@@H]2CC23CCN(C(=O)[C@@](O)(c2ccccc2)C(F)(F)F)CC3)nc1Cl (single isomer, unassigned) [Example 15-2]
readout-units: %
Emax: 115
--
molecule: CN(C)C(=O)c1ccc(OCCCCC2(C)CCN(C(=O)C3(c4ccccc4)CCCC3)CC2)cc1Cl [Example 9-1]
readout-units: %
Emax: 88
--
molecule: CN(C)C(=O)c1ccc(OCC[C@H]2C[C@H]2C2CCN(C(=O)[C@](O)(c3ccccc3)C(F)(F)F)CC2)cc1C#N (single isomer, unassigned) [Example 11-1]
readout-units: %
Emax: 78
--
molecule: CNC(=O)c1ccc(OC[C@H]2C[C@@H]2C2CCN(C(=O)[C@](O)(c3ccccc3)C(F)(F)C(F)(F)F)CC2)cc1Cl (single isomer, unassigned) [Example 32-5]
readout-units: %
Emax: 149
--
molecule: CN(C)C(=O)c1ccc(OCCC2CC23CCN(C(=O)C2(c4ccccc4C(F)(F)F)CCC2)CC3)cc1Cl (single isomer, unassigned) [Example 12-6]
readout-units: %
Emax: 68
--
molecule: CN(C)C(=O)c1ccc(OCCCC2CCN(C(=O)[C@](O)(c3ccccc3)C(F)(F)F)CC2)nc1Cl (single isomer, unassigned) [Example 3-20]
readout-units: %
Emax: 74
--
molecule: CN(C)C(=O)c1ccc(OCCCCC2CCN(C(=O)c3c(F)cccc3F)CC2)nc1Cl [Example 3-15]
readout-units: %
Emax: 80

----------
Target: glutathione-S-transferase (GST) tagged LXRalpha LBD (ligand binding domain) (Homo sapiens)
Construct: purchased Invitrogen pv4655
Sequence (Q13133 209-447 limits assumed): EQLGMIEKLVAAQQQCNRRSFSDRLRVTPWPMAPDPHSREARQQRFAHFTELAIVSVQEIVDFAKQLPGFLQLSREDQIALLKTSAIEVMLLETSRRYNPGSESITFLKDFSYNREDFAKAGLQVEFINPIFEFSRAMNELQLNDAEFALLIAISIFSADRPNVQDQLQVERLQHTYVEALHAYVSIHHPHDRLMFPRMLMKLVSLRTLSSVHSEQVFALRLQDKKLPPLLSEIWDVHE
Assay: biochemical
Conditions: potency (Inflection Point), compound-induced co-activator recruitment, TR-FRET; read-out: LXR alpha IP
pEC50: −log10 of the molar value.

compound: CN(C)C(=O)c1ccc(OCC[C@H]2C[C@H]2C2CCN(C(=O)[C@](O)(c3ccccc3)C(F)(F)F)CC2)cc1C#N (single isomer, unassigned)
pEC50: 5.85
--
compound: COc1cccc(C(O)(C(=O)N2CCC(C(F)(F)CCCOc3ccc(C(=O)N(C)C)c(Cl)c3)CC2)C(F)(F)F)c1 (single isomer, unassigned)
pEC50: 6.67
--
compound: CN(C)C(=O)c1ccc(OC(F)(F)CCCC2CCN(C(=O)C(O)(c3ccccc3)C(F)(F)F)CC2)cc1Cl (single isomer, unassigned)
pEC50: 5.93
--
compound: C[C@H](CCCC1CCN(C(=O)[C@](O)(c2ccccc2)C(F)(F)F)CC1)Oc1ccc(C(=O)N(C)C)c(Cl)c1 (single isomer, unassigned)
pEC50: 5.94
--
compound: CN(C)C(=O)c1ccc(OCC(F)CCC2CCN(C(=O)C(O)(c3ccccc3)C(F)(F)F)CC2)cc1Cl (single isomer, unassigned)
pEC50: 5.85

----------
Target: glutathione-S-transferase (GST) tagged LXRbeta LBD (ligand binding domain) (Homo sapiens)
Construct: purchased Invitrogen pv4658
Experiment: LanthaScreen TR-FRET Liver X Receptor Coactivator Assay, LXR beta
Assay type: biochemical
Conditions: LXR beta IP, potency (Inflection Point), compound-induced co-activator recruitment, TR-FRET
pEC50: −log10 of the molar value.
Reported pEC50 is given for each of the following molecules.

molecule: CN(C)C(=O)c1ccc(O[C@H]2C[C@@H](CC3CCN(C(=O)[C@](O)(c4cccc(C(F)(F)F)c4)C(F)(F)F)CC3)C2)cc1Cl (single isomer, unassigned) [Example 37-6]
pEC50: 7.82
--
molecule: CNC(=O)c1ccc(OC[C@@H](C)CCC2CCN(C(=O)[C@@](O)(c3cccc(OC)c3)C(F)(F)F)CC2)cc1Cl (single isomer, unassigned) [Example 23-4]
pEC50: 7.22
--
molecule: CN(C)C(=O)c1ccc(OCC2CC3(CCN(C(=O)C(O)(c4ccccc4)C(F)(F)F)CC3)C2)cc1Cl (single isomer, unassigned) [Example 33-1]
pEC50: 8.05
--
molecule: CC(CCC1CCN(C(=O)[C@](O)(c2ccccc2)C(F)(F)F)CC1)COc1ccc(C(=O)N(C)C)c(Cl)c1 (single isomer, unassigned) [Example 23-1]
pEC50: 7.62
--
molecule: COc1cccc(C(O)(C(=O)N2CCC(C(F)CCCOc3ccc(C(=O)N(C)C)c(Cl)c3)CC2)C(F)(F)F)c1 (single isomer, unassigned) [Example 21-1]
pEC50: 8.05
--
molecule: CN(C)C(=O)c1ccc(OC[C@@H](F)CCC2CCN(C(=O)[C@](O)(c3ccccc3)C(F)(F)F)CC2)cc1Cl (single isomer, unassigned) [Example 20-2]
pEC50: 7.15
--
molecule: O=C(c1ccc(OCCCCC2CCN(C(=O)C(O)(c3ccccc3)C(F)(F)F)CC2)cc1Cl)N1C[C@@H]2CC[C@H]1C2 (single isomer, unassigned) [Example 8-15]
pEC50: 7.19
--
molecule: CN(C)C(=O)c1ccc(OCCC2CC3(CCN(C(=O)C(C)(C)c4ccccc4)CC3)C2)cc1Cl [Example 34-2]
pEC50: 7.59
--
molecule: CN(C)C(=O)c1ccc(OC[C@H]2C[C@@H]2C2CCN(C(=O)C(C)(C)c3ccccc3)CC2)cc1Cl (single isomer, unassigned) [Example 32-6]
pEC50: 7.38
--
molecule: CN(C)C(=O)c1ccc(OCCC2CC23CCN(S(=O)(=O)C(C)(C)c2ccccc2)CC3)cc1Cl (single isomer, unassigned) [Example 12-18]
pEC50: 7.10
--
molecule: CN(C)C(=O)c1ccc(OCCC2CC23CCN(C(=O)C(C)(C)c2ccsc2)CC3)cc1Cl (single isomer, unassigned) [Example 12-7]
pEC50: 7.54

----------
Catalogue of molecules with associated Emax
Biological target: glutathione-S-transferase (GST) tagged LXRalpha LBD (ligand binding domain) (Homo sapiens)
Construct: purchased Invitrogen pv4655
Assay: biochemical
Conditions: read-out: LXR alpha actiivty at max dose, efficacy (% Emax) in relation to reference dual agonist T0901317

molecule: CN(C)C(=O)c1ccc(OC[C@@H]2C[C@H]2C2CCN(C(=O)C(C)(C)c3ccccc3)CC2)cc1Cl (single isomer, unassigned) [Example 32-4]
Emax [%]: 0
--
molecule: CC(COc1ccc(C(=O)N(C)C)c(Cl)c1)CC(C)C1CCN(C(=O)C(O)(c2ccccc2)C(F)(F)F)CC1 (single isomer, unassigned) [Example 31-1]
Emax [%]: 27
--
molecule: CN(C)C(=O)c1ccc(OCCCCC2CCN(C(=O)c3c(F)cccc3F)CC2)nc1Cl [Example 3-15]
Emax [%]: 14
--
molecule: COc1cccc(C(O)(C(=O)N2CCC(CCCCOc3ccc(C(=O)N(C)C)c(Cl)c3)CC2)C(F)(F)F)c1 (single isomer, unassigned) [Example 3-13]
Emax [%]: 0
--
molecule: COc1cccc([C@@](O)(C(=O)N2CCC([C@H]3CC[C@@H](Oc4ccc(C(=O)N(C)C)c(Cl)c4)CC3)CC2)C(F)(F)F)c1 (single isomer, unassigned) [Example 38-1]
Emax [%]: 44
